- System: HT29 colon
- assay text: NCI tumour cell line growth inhibition, 48 h; in the data active means GI50 below about 0.43 µM; inactive means the rest
Tick one outcome: true = active, false = inactive

>  <molecule>
CCCN(CCC)c1ccc(/C=C/c2ccc3cc(OCC)ccc3n2)cc1

>  <label>
false

$$$$
>  <molecule>
C/C(=N\Nc1cc(C)c2ccccc2n1)c1ccccn1

>  <label>
true

$$$$
>  <molecule>
COc1ccc(-c2cc(-c3ccc(Cl)cc3)nc(SCCCC(=O)NO)n2)cc1

>  <label>
false

$$$$
>  <molecule>
CC(C)[O-].CC(C)[O-].O=C1C=C([O-])C(=O)c2ccccc21.O=C1C=C([O-])C(=O)c2ccccc21.[Ti+4]

>  <label>
false

$$$$
>  <molecule>
O=C1NC(=O)C(c2ccccc2Cl)=C1Nc1cc(Cl)c(O)c(Cl)c1

>  <label>
false

$$$$

Let's switch to this molecule now.
Exercise: In this assay, the call recorded for N#CC1=C(N)Oc2c(ccc3ccccc23)C1c1ccccc1 (stereo not drawn) was what?
Solution: true

====

The entries below come with measured log10 TGI values attached.
- System: MALME-3M melanoma
- assay text: NCI tumour cell line growth inhibition, 48 h
Hey, these are logged values: log10 of TGI, µM being the unit before logging.

Reference set (4 entries):
>  <query smiles>
COc1ccc(NC([Se])=NC23CC4CC(CC(C4)C2)C3)cc1

>  <log10 TGI>
0.57

$$$$
>  <query smiles>
O=C(c1c(F)c(F)c(F)c(F)c1F)N1CCN(C(=O)c2c(F)c(F)c(F)c(F)c2F)C1=S

>  <log10 TGI>
1.20

$$$$
>  <query smiles>
Cc1ccccc1NC(=O)c1c(C)oc2c1C(=O)c1ccccc1C2=O

>  <log10 TGI>
1.44

$$$$
>  <query smiles>
C/C=C1\C=C(OC)CN(CCc2c[nH]c3ccccc23)C1

>  <log10 TGI>
1.75

$$$$

Exercise: Please report the recorded log10 TGI for C[C@]12CC[C@@H]3c4cc(-c5ccc(F)cc5)c(O)cc4CC[C@H]3[C@@H]1CC[C@@H]2O .
Solution: 1.34

====

- System: NCI-H460 lung
# valid calls are active, inactive; nothing else

Some solved entries appear below for comparison.
>  <molecule>
O=c1cc(N2CCN(CCCCCOc3cc(O)c4c(=O)cc(-c5ccccc5)oc4c3)CC2)c2ccccc2o1

>  <label>
inactive

$$$$
>  <molecule>
N#Cc1ccc2c(c1)C(=O)c1c-2n(CCCCl)c(=O)c2cc([N+](=O)[O-])ccc12

>  <label>
active

$$$$
>  <molecule>
Nc1c2c(c(O)c3c1=C(CO)C=N3)=NCCS2

>  <label>
active

$$$$
>  <molecule>
CC1=C(C(=O)Nc2ccc(Cl)c(Cl)c2)C(c2cccc(Cl)c2)NC(=O)N1 (stereo not given)

>  <label>
inactive

$$$$
>  <molecule>
COc1cc2ncn(-c3cc(O[C@@H](C)c4ccccc4Cl)c(C(N)=O)s3)c2cc1OC

>  <label>
inactive

$$$$
>  <molecule>
O=S(=O)(NCCCNc1nccc(-c2c(-c3ccc(F)c(O)c3)nc3sccn23)n1)c1ccc(F)cc1

>  <label>
inactive

$$$$
>  <molecule>
COc1cc(N2CCC(N3CCN(C)CC3)CC2)ccc1Nc1ncnc(Nc2ccccc2S(=O)(=O)C(C)C)n1

>  <label>
inactive

$$$$
>  <molecule>
N#CC1=C(N)Oc2c(ccc3ccccc23)C1c1ccccc1 (stereo not given)

>  <label>
active

$$$$

Exercise: Fill in: this test's call for CC(C)C[C@H](NC(=O)Cn1ccc(NCc2ccccc2)cc1=O)B(O)O is ___
Solution: inactive

Exercise: In this assay, the call recorded for NC1CCC(Nc2nc(NCc3ccc(-c4ccccc4O)nc3)c3ncn(C4CCCC4)c3n2)CC1 (stereo not given) was what?
Solution: active
